Measured ΔTm at 10 µM by item
- target.desc: LmxCLK1 (Leishmania mexicana, UniProt E9AMP2)
- assay.procedure: biochemical
- Assay type: binding
- protocol.conditions: DSF, 10 µM compound, 2 µM LmxCLK1, Run 2; read-out: ΔTm Run 2

# molecule, ΔTm at 10 µM, °C
measured = [
    ("FC(F)c1nc2ccccc2n1-c1nc(N2CCOCC2)nc(N2CCOCC2)n1 [ZSTK474]", 0),
    ("Oc1cccc(-c2nc(N3CCOCC3)c3oc4ncccc4c3n2)c1 [PI-103]", 0),
    ("COc1ccc(-c2ccc3c(N4CCOC[C@@H]4C)nc(N4CCOC[C@@H]4C)nc3n2)cc1CO [AZD8055]", 0.3),
    ("CCCS(=O)(=O)Nc1ccc(F)c(C(=O)c2c[nH]c3ncc(Cl)cc23)c1F [PLX-4720]", -0.1),
    ("Cc1cc(Nc2cc(CN3CCOCC3)c3nc(C)c(Cc4ccc(Cl)cc4F)n3n2)n[nH]1 [LY2784544]", -0.4),
]

----------
- target.desc: UniProt E9AMP2
- assay.procedure: biochemical
- Assay type: binding

# smiles.text, ΔTm Run 2 [°C]
measured = [
    ("N#Cc1c(O)c2c(-c3ccc(-c4ccccc4O)cc3)csc2[nH]c1=O", 0),
    ("Cc1[nH]nc2ccc(-c3cncc(OC[C@@H](N)Cc4ccccc4)c3)cc12", 0.6),
    ("Cc1ccccc1CN1C(=O)C2=C(CCN(Cc3ccccc3)C2)N2CCN=C12", 0.2),
]

----------
- target.desc: LmxCLK1 (Leishmania mexicana, UniProt E9AMP2)
- Sequence (E9AMP2 1-422): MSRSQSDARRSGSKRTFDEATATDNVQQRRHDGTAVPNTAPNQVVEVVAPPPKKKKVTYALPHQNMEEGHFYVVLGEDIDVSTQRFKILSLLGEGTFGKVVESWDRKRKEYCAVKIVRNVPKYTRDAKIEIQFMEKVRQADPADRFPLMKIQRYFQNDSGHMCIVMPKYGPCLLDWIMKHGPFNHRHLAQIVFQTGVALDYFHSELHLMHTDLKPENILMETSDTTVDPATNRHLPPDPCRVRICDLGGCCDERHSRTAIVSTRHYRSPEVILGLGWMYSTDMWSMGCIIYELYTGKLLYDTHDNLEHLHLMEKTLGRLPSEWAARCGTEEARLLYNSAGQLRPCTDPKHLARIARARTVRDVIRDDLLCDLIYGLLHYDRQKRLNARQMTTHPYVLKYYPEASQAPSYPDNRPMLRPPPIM
- assay.procedure: biochemical
- Assay type: binding
- protocol.conditions: DSF, 10 µM compound, 2 µM LmxCLK1, mean of two runs; read-out: ΔTm Average
measurement.name: ΔTm at 10 µM (°C)

# molecule, reported.measurement
records = [
    ("CN1CCN(c2nc(C3=C(c4c[nH]c5ccccc45)C(=O)NC3=O)c3ccccc3n2)CC1 [Sotrastaurin]", 1),
    ("COc1ccc(S(=O)(=O)N(C(C)=O)c2ccccc2/C=C/c2cc[n+]([O-])cc2)cc1 [HMN-214]", 0.2),
    ("Cc1ccc2nc(NCCN)c3ncc(C)n3c2c1 [BMS-345541]", -0.2),
    ("Oc1cccc(-c2nc(N3CCOCC3)c3oc4ncccc4c3n2)c1 [PI-103]", 0),
    ("C[C@H](NC(=O)/C(C#N)=C/c1cccc(Br)n1)c1ccccc1 [WP1066]", 0),
]

----------
- target.desc: LmxCLK1 (Leishmania mexicana)
- assay.procedure: biochemical
- Type: binding
- protocol.conditions: DSF, 10 µM compound, 2 µM LmxCLK1, mean of two runs
Recorded ΔTm Average for the following molecules

# molecule, ΔTm Average
data = [
    ("N[C@@H]1CCCN(c2c(/C=C3\\SC(=O)NC3=O)cccc2-c2ccccc2)C1", "-0.1 °C"),
    ("CNC(=O)Nc1ccc(-c2nc(N3CC4CCC(C3)O4)c3cnn(C4CCC5(CC4)OCCO5)c3n2)cc1", "0.0 °C"),
    ("COc1cc2nccc(Oc3ccc(NC(=O)NC4CC4)c(Cl)c3)c2cc1C(N)=O [Lenvatinib (E7080)]", "-0.3 °C"),
    ("C=CC(=O)Nc1cccc(Nc2nc(Nc3ccc(N4CCN(C(C)=O)CC4)cc3OC)ncc2C(F)(F)F)c1", "-0.1 °C"),
    ("COc1ccc2c(Oc3ccc(NC(=O)c4c(C)n(CC(C)(C)O)n(-c5ccccc5)c4=O)nc3)ccnc2c1", "1.0 °C"),
    ("O=C1Nc2ccc(I)cc2/C1=C/c1cc(Br)c(O)c(Br)c1", "-0.2 °C"),
    ("CSc1cccc(Nc2ncc3cc(-c4c(Cl)cccc4Cl)c(=O)n(C)c3n2)c1", "-0.1 °C"),
    ("CN1CCCN(C(=O)c2cccc(-c3ccc(/C=C4/C(=O)Nc5ccc(Cl)cc54)o3)c2)CC1.Cl [CX-6258 HCl]", "-0.1 °C"),
    ("Oc1ccc(-c2nc(-c3ccc(F)cc3)c(-c3ccncc3)[nH]2)cc1", "0.3 °C"),
    ("Cc1ccc(NC(=O)c2ccc(CN3CCN(C)CC3)cc2)cc1Nc1nc(-c2cccnc2)cs1", "0.2 °C"),
    ("CCn1c(=O)c(-c2cc[nH]n2)cc2c(C)nc(N)nc21", "0.0 °C"),
    ("COc1ccc(COc2cc3oc(=O)c4cc(C(C)O)ccc4c3cc2OC)cc1 (centres unmarked)", "0.1 °C"),
    ("CNC(=O)c1ccccc1Nc1nc(Nc2ccc(N3CCOCC3)cc2OC)ncc1Cl", "0.0 °C"),
    ("CC(C)CCN1c2nc(Nc3cc(F)c(O)c(F)c3)ncc2N(C)C(=O)C1C (centres unmarked)", "0.2 °C"),
    ("CS(=O)(=O)O.Cn1cc(C2=C(c3cn(CCCSC(=N)N)c4ccccc34)C(=O)NC2=O)c2ccccc21 [Ro 31-8220 Mesylate]", "1.3 °C"),
    ("COc1ccc2c(c1)c(C1=C(c3c[nH]c4ccccc34)C(=O)NC1=O)cn2CCCN(C)C", "0.3 °C"),
    ("Cc1cnc(Nc2ccc(OCCN3CCCC3)cc2)nc1Nc1cccc(S(=O)(=O)NC(C)(C)C)c1 [TG101348 (SAR302503)]", "0.3 °C"),
    ("CNC(=O)c1cc(Oc2ccc(NC(=O)Nc3ccc(Cl)c(C(F)(F)F)c3)cc2)ccn1 [Sorafenib]", "-0.1 °C"),
    ("Cc1cnc(Nc2ccc(N3CCN(C)CC3)cc2)nc1Nc1cccc(S(=O)(=O)NC(C)(C)C)c1", "0.0 °C"),
    ("COc1ccccc1-c1cc(Nc2cccc(CS(N)(=O)=O)c2)ncn1", "-0.1 °C"),
]

----------
# ΔTm Run 1 per record follows
- target.desc: LmxCLK1 (Leishmania mexicana, UniProt E9AMP2)
- assay.procedure: biochemical
- Format: binding
- protocol.conditions: DSF, 10 µM compound, 2 µM LmxCLK1, Run 1

# molecule, units.symbol, ΔTm Run 1
rows = [
    ("O=c1cc(N2CCOCC2)oc2c(-c3cccc4c3sc3ccccc34)cccc12 [NU7441 (KU-57788)]", "°C", 0.0),
    ("C[C@]1(O)C[C@@H](c2nc(-c3ccc4ccc(-c5ccccc5)nc4c3)c3c(N)nccn32)C1 [OSI-906 (Linsitinib)]", "°C", 0.0),
    ("O=C1Nc2ccc(I)cc2/C1=C/c1cc(Br)c(O)c(Br)c1 [GW5074]", "°C", 0.0),
    ("COc1cc2ncc(-c3ccccc3)nc2cc1OC [Tyrphostin AG 1296]", "°C", 0.3),
    ("Nc1cccc(-c2cc3c(Oc4cccc(O)c4)ncnc3[nH]2)c1 [TWS119]", "°C", 0.1),
    ("CC(O)C(=O)O.CC(O)C(=O)O.CN1CCN(c2ccc3nc(-c4c(N)c5c(F)cccc5[nH]c4=O)[nH]c3c2)CC1 [Dovitinib (TKI-258) Dilactic Acid]", "°C", -0.5),
]

----------
Reported ΔTm Run 2 values for a set of compounds
- target.desc: LmxCLK1 (Leishmania mexicana, UniProt E9AMP2)
- Sequence (E9AMP2 1-422): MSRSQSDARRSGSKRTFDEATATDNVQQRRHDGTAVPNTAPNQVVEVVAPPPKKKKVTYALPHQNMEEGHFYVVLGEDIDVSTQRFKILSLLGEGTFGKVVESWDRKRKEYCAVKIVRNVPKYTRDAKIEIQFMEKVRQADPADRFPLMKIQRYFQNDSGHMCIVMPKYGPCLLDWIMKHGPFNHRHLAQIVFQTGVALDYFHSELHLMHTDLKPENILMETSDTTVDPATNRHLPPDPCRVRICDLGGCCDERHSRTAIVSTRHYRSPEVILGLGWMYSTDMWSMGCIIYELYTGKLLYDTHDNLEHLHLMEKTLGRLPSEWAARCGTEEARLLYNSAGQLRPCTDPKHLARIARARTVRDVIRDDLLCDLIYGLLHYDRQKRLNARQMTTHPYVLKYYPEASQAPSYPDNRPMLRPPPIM
- assay.procedure: biochemical
- Type: binding
- protocol.conditions: DSF, 10 µM compound, 2 µM LmxCLK1, Run 2
measurement.name: ΔTm Run 2 (°C)

# compound, units.symbol, reported.measurement
measured = [
    ("COc1cc(OC)c(/C=C/S(=O)(=O)Cc2ccc(OC)c(NCC(=O)O)c2)c(OC)c1", "°C", -0.4),
    ("CC(C)N(CCC(=O)c1ccc2ccccc2c1)Cc1ccccc1.Cl [ZM 39923 HCl]", "°C", -0.3),
    ("O=c1cc(-c2cccc3c2Sc2ccccc2S3)oc(N2CCOCC2)c1", "°C", 0.2),
    ("COc1cc2/c(=N/c3ccc(Br)cc3F)nc[nH]c2cc1OCC1CCN(C)CC1 [Vandetanib (ZD6474)]", "°C", -0.1),
    ("O=C(NC(NC(=S)Nc1ccc(F)c([N+](=O)[O-])c1)C(Cl)(Cl)Cl)C(c1ccccc1)c1ccccc1 (stereo not drawn)", "°C", 0.0),
    ("COc1ccc(-c2ccc3ncc4c(c3c2)n(-c2ccc(N3CCNCC3)c(C(F)(F)F)c2)c(=O)n4C)cn1", "°C", 0.7),
    ("Cc1ccc(NC(=O)c2cccc(N(C)C)c2)cc1NC(=O)c1ccc(O)cc1", "°C", -0.5),
    ("CC(O)C(=O)O.CC(O)C(=O)O.CN1CCN(c2ccc3nc(-c4c(N)c5c(F)cccc5[nH]c4=O)[nH]c3c2)CC1", "°C", -0.4),
    ("COc1ccc(S(=O)(=O)N(CCO)c2ccccc2CN(C)C/C=C/c2ccc(Cl)cc2)cc1.O=P(O)(O)O [KN-93 Phosphate]", "°C", -0.5),
]
